systemUnderTest: huPD-L1 (Homo sapiens, UniProt Q9NZQ7)
Sequence (Q9NZQ7 19-290): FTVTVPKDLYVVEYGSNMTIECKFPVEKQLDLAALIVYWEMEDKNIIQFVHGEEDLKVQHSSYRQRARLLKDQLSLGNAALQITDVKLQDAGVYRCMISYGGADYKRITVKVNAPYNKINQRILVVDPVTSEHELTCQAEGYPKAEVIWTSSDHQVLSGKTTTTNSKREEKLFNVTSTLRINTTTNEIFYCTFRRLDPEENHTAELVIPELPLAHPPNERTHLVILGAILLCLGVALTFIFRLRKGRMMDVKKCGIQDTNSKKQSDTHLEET
assay: Flow binding to CHO cells stably expressing PD-L1
Design: huCTLA4 and huPD-L1, full-length mammalian surface expression constructs were generated; expressed in transfected cells; host or cells: CHO cells, lentiviral transduction, sorted to >98% purity
appliedConditions: Table E19; ratio of MFI at 33.3 nM
Overview of reported Ratio of PDL1:CD28 across a group of molecules:
// return just the number, without any unit appended

>  <molecule>
D46V/M47L/L85Q (protein) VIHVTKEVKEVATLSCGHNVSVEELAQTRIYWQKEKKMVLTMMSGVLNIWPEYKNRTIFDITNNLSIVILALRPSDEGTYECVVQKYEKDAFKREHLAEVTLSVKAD

>  <valueKind>
Ratio of PDL1:CD28

>  <dataValue>
10.5

$$$$

What measured Ratio of PDL1:CD28 goes with E35D/M47V/N48K/V68M/L85Q (protein) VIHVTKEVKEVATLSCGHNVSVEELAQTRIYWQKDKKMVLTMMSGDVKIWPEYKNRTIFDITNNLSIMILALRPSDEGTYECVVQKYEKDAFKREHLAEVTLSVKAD ?
88.8

Values from patent US20220177587A1
